Let's look at some binders and their measured EC50.
- System name: T1, HKU1 spike protein (HCoV-HKU1)
- T1 chain: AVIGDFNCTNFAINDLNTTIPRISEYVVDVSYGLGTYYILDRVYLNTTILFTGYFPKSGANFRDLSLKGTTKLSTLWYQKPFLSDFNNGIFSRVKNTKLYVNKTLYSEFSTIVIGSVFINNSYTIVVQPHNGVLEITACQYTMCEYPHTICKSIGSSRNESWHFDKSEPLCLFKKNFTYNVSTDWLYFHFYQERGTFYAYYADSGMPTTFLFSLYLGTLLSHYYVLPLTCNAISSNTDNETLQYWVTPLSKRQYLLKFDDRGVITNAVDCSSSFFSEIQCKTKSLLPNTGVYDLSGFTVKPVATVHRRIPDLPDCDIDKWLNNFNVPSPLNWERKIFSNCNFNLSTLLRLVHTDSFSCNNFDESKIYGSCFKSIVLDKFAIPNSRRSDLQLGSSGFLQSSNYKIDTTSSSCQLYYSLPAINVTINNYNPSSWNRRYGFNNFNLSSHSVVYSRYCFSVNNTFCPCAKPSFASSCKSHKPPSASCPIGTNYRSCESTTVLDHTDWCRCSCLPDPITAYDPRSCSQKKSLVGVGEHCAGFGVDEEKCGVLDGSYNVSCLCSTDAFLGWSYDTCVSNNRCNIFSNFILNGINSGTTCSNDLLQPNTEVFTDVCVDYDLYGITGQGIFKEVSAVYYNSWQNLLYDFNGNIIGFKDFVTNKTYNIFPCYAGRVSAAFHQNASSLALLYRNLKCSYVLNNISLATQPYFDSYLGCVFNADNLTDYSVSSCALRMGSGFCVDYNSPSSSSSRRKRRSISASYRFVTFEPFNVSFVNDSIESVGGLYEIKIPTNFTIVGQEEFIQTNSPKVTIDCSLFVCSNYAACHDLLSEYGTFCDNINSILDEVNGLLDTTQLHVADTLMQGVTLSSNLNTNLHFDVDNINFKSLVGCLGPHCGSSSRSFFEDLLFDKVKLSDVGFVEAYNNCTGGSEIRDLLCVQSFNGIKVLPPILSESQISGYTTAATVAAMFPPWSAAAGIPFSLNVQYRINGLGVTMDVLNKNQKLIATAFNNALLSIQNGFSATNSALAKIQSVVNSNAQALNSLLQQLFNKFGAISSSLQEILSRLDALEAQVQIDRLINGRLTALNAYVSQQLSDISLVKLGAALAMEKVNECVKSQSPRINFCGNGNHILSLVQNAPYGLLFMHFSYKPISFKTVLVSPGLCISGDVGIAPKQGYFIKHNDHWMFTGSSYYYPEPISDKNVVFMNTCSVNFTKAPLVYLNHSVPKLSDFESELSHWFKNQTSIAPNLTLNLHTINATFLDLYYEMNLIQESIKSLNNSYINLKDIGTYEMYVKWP
- Assay name: ELISA
Use nM as the unit, but write only the number.

Previously resolved entries follow.
- Binder: "6-O12-A (antibody, V domains shown) VH: QVQLQQPGTELVKPGASVKLSCKASGYTFTSYWMHWVKQRPGQGLEWIGNINPSNGGTNYNEKFRSKATLTVDKSSSTAYMQLSSLTSEDSAVYYCARLGWFLPLGSWGQGTTLTVSS VL: QIVLTQSPAIMSASLGEVITLTCSASSSVSYMHWYQQKSGTSPKLLIYSTSNLASGVPSRFSGSGSGTFYSLTISSVEAEDAADYYCHQWSGYMYTFGGGTKLEIK"
  Metric name: "EC50"
  Quantitative readout: 0.41
- Binder: "2-G20-A (antibody, V domains shown) VH: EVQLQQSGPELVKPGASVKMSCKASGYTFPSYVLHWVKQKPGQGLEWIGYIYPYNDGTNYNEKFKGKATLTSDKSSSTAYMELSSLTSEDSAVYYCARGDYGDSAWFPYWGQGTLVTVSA VL: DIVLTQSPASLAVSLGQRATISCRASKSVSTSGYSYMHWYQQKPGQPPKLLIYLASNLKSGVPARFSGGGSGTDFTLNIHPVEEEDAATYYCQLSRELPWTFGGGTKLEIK"
  Metric name: "EC50"
  Quantitative readout: 1.39

Data request: Find the recorded EC50 belonging to 8-A17-A (antibody, V domains shown) VH: QVQLKESGPGLVAPSQSLSITCTVSGFSLTSYAISWVRQPPGKGLEWLGVVWPGGGTNYNSALKSRLSINKDNSKSQVFLKMNSLQTDDTGRYYCARTGYHFDYWGQGTTLTVSS VL: QIVLTQSPAIMSASPGEKVTMTCSVSSSVSYMHWYQQKSGTSPKRWIYDTSKLASGVPARFSGSGSGTSYSLTISSMEAEDAATYYCQQWSSNPPMYTFGGGTKLEIK and report it.
Data returned: 0.37
